Assay: Cmax in 5XFAD transgenic B6SJLF1/J mouse brain at 10 mg/kg, ip by LC-MS/MS analysis
Type: ADME, organism-based
Parameters: dose 10 mg/kg, route intraperitoneal
READOUT_TYPE: Cmax (µM)
API: value field is a number in µM; no unit string.

Bench note: what Cmax did COc1ccc(-c2c(C)nc3c(N4CC[C@@H](NC(=O)Oc5ccccc5)C4)cc(C)nn23)cc1OC show?
3.89

###

Known remaining at 1 h, 1 µM of a selection of compounds
Experiment: Stability in human liver microsomes assessed as parent compound remaining at 1 uM measured after 60 mins in absence of NADPH by LC-MS/MS analysis
Type: ADME, Microsome
Conditions: liver microsomes, read-out: Stability

Bench note: what remaining at 1 h, 1 µM did COc1ccc(-c2c(C)nc3c(N4CCN(C(C)=O)CC4)cc(C)nn23)cc1OC show?
> 95%

Bench note: what remaining at 1 h, 1 µM did COc1ccc(-c2c(C)nc3c(N4CC[C@@H](NS(=O)(=O)c5cccs5)C4)cc(C)nn23)cc1OC show?
> 95%

More entries:
Bench note: what remaining at 1 h, 1 µM did COc1ccc(-c2c(C)nc3c(N4CC[C@@H](NC(=O)Cc5ccccc5)C4)cc(C)nn23)cc1OC show?
> 95%

Bench note: what remaining at 1 h, 1 µM did COc1ccc(-c2c(C)nc3c(N4CC[C@@H](NS(=O)(=O)c5ccc(C#N)cc5)C4)cc(C)nn23)cc1OC show?
> 95%

Bench note: what remaining at 1 h, 1 µM did COc1ccc(-c2cnc3c(N4CC[C@@H](NC(C)=O)C4)ccnn23)cc1OC show?
> 95%

Bench note: what remaining at 1 h, 1 µM did COc1ccc(-c2c(C)nc3c(N4CC[C@@H](NC(=O)C(F)(F)c5ccccc5)C4)cc(C)nn23)cc1OC show?
> 95%

Bench note: what remaining at 1 h, 1 µM did COc1ccc(-c2c(C)nc3c(N4CC[C@@H](N5CCOCC5)C4)cc(C)nn23)cc1OC show?
> 95%

Bench note: what remaining at 1 h, 1 µM did COc1ccc(-c2c(C)nc3c(N4CC[C@@H](NC(=O)NC(C)C)C4)cc(C)nn23)cc1OC show?
> 95%

Bench note: what remaining at 1 h, 1 µM did COc1ccc(-c2c(C)nc3c(N4CC[C@@H](NC(=O)OCc5ccccc5)C4)cc(C)nn23)cc1OC show?
> 95%

Bench note: what remaining at 1 h, 1 µM did COc1ccc(-c2c(C)nc3c(N4CC[C@@H](NC(C)=O)C4)ccnn23)cc1OC show?
> 95%

Bench note: what remaining at 1 h, 1 µM did COc1ccc(-c2c(C)nc3c(N4CC[C@@H](NS(=O)(=O)c5ccc(C(C)=O)cc5)C4)cc(C)nn23)cc1OC show?
> 95%

Bench note: what remaining at 1 h, 1 µM did COc1ccc(-c2cnc3c(N4CC[C@@H](NC(C)=O)C4)cc(C)nn23)cc1OC show?
> 95%

Bench note: what remaining at 1 h, 1 µM did COc1ccc(-c2c(C)nc3c(N4CC[C@@H](N)C4)cc(C)nn23)cc1OC show?
> 95%

Bench note: what remaining at 1 h, 1 µM did COc1ccc(-c2c(C)nc3c(N4CC[C@@H](N=[N+]=[N-])C4)cc(C)nn23)cc1OC show?
> 95%

Bench note: what remaining at 1 h, 1 µM did COc1ccc(-c2c(C)nc3c(N4CC[C@@H](NC(=O)c5ccccc5)C4)cc(C)nn23)cc1OC show?
> 95%

Bench note: what remaining at 1 h, 1 µM did COc1ccc(-c2c(C)nc3c(N4CCN(C(=O)C5CCCCC5)CC4)cc(C)nn23)cc1OC show?
> 95%

Bench note: what remaining at 1 h, 1 µM did COc1ccc(-c2c(C)nc3c(N4CC[C@@H](NC(C)=O)C4)cc(C)nn23)cc1OC show?
> 95%

Bench note: what remaining at 1 h, 1 µM did COc1ccc(-c2c(C)nc3c(N4CC[C@@H](O)C4)cc(C)nn23)cc1OC show?
> 95%

Bench note: what remaining at 1 h, 1 µM did COc1ccc(-c2c(C)nc3c(N4CCN(C(=O)OC(C)(C)C)CC4)cc(C)nn23)cc1OC show?
> 95%

Bench note: what remaining at 1 h, 1 µM did COc1ccc(-c2c(C)nc3c(N4CC[C@@H](NC(=O)C(F)(F)F)C4)cc(C)nn23)cc1OC show?
> 95%

Bench note: what remaining at 1 h, 1 µM did CC(=O)N[C@@H]1CCN(c2cc(C)nn3c(-c4cccc(N5CCOCC5)c4)c(C)nc23)C1 show?
> 95%

Bench note: what remaining at 1 h, 1 µM did CC(=O)N[C@@H]1CCN(c2cc(C)nn3c(-c4ccccc4)c(C)nc23)C1 show?
> 95%

Bench note: what remaining at 1 h, 1 µM did CC(=O)N[C@@H]1CCN(c2cc(C)nn3c(-c4cccc(S(=O)(=O)N(C)C)c4)c(C)nc23)C1 show?
> 95%

Reference source: ChEMBL document CHEMBL4613265
